# experiment description: Solubility in microsomal incubation mixtures
# test settings: microsomal incubation mixtures
property: solubility (µM)
Answer with a number only, understood to be in µM.

# solubility lookup, item O=C(c1ccc(OCCN2CCCCC2)cc1)c1c(-c2ccc(O)cc2)sc2cc(O)ccc12 [Raloxifene, raloxifene, reference compound]
100

* * *

# measurement target: UGT1A1 (Homo sapiens)
# experiment description: in vitro
# test settings: pH 7.5, Inhibition of raloxifene glucuronidation, G2, UGT1A1
property: activity at 15 min, 2 μM (%)
Answer with a number only, understood to be in %.

# activity at 15 min, 2 μM lookup, item O=c1c(O)c(-c2ccc(O)c(O)c2)oc2cc(O)cc(O)c12
90

* * *

# Test system: UGT enzymes of human liver microsomes
# Construct: percentage of control metabolism, 7-HFC glucuronidation; percentage of control metabolism, 7-HFC glucuronidation
# experiment description: Kinetic and Ki studies of inhibitors of 7-HFC glucuronidation in human liver microsomes
# Format: biochemical
# test settings: 7-HFC 20-500 μM
property: Vmax of 7-HFC glucuronidation (fit of the experiment with this inhibitor) (nmol/min/mg)
Answer with a number only, understood to be in nmol/min/mg.

Some molecules with known Vmax of 7-HFC glucuronidation (fit of the experiment with this inhibitor) results, for comparison:
O=C(O[C@@H]1Cc2c(O)cc(O)cc2O[C@@H]1c1cc(O)c(O)c(O)c1)c1cc(O)c(O)c(O)c1 [Epigallocatechin gallate]: 54
CC/C(=C(/CC)c1ccc(O)cc1)c1ccc(O)cc1 [Diethylstilbestrol, reference compound]: 64
O=C(O[C@@H]1Cc2c(O)cc(O)cc2O[C@H]1c1cc(O)c(O)c(O)c1)c1cc(O)c(O)c(O)c1 [Gallocatechin gallate]: 54
O=C(OC[C@H]1O[C@@H](OC(=O)c2cc(O)c(O)c(OC(=O)c3cc(O)c(O)c(O)c3)c2)[C@H](OC(=O)c2cc(O)c(O)c(OC(=O)c3cc(O)c(O)c(O)c3)c2)[C@@H](OC(=O)c2cc(O)c(O)c(OC(=O)c3cc(O)c(O)c(O)c3)c2)[C@@H]1OC(=O)c1cc(O)c(O)c(OC(=O)c2cc(O)c(O)c(O)c2)c1)c1cc(O)c(O)c(OC(=O)c2cc(O)c(O)c(O)c2)c1 [Tannic acid]: 57
CCCCCCCCOC(=O)c1cc(O)c(O)c(O)c1 [Octyl gallate]: 57
O=C(O)Cc1ccccc1Nc1c(Cl)cccc1Cl [Diclofenac, reference compound]: 64

Shift focus to the following entry.
Recall the recorded Vmax of 7-HFC glucuronidation (fit of the experiment with this inhibitor) for O=C(O)c1cc(-c2ccc(F)cc2F)ccc1O [Diflunisal, reference compound] with UGT enzymes of human liver microsomes and state it.
62

* * *

# measurement target: UGT1A9 (Homo sapiens, UniProt O60656)
# Sequence (O60656 26-530): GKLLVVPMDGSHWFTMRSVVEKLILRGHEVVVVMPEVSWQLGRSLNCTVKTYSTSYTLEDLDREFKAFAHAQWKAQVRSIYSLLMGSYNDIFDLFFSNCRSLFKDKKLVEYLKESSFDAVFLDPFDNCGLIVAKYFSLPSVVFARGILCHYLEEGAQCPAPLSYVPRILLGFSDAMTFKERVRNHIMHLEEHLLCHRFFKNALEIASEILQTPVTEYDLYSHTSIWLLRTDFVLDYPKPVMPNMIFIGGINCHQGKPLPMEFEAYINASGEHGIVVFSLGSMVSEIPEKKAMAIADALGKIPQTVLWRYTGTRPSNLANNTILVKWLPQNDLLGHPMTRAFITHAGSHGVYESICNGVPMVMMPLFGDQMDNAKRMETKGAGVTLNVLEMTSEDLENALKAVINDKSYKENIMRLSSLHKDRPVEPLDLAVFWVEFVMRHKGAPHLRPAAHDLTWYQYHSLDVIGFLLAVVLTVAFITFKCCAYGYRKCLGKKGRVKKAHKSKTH
# experiment description: in vitro
# test settings: pH 7.5, % of control metabolism, raloxifene G2
property: activity at 15 min, 10 µM (%)
Answer with a number only, understood to be in %.

# activity at 15 min, 10 µM lookup, item COc1cc(C2Oc3cc([C@H]4Oc5cc(O)cc(O)c5C(=O)[C@@H]4O)ccc3OC2CO)ccc1O (stereo partly shown)
72

* * *

# measurement target: UniProt P35503
# Sequence (P35503 29-534): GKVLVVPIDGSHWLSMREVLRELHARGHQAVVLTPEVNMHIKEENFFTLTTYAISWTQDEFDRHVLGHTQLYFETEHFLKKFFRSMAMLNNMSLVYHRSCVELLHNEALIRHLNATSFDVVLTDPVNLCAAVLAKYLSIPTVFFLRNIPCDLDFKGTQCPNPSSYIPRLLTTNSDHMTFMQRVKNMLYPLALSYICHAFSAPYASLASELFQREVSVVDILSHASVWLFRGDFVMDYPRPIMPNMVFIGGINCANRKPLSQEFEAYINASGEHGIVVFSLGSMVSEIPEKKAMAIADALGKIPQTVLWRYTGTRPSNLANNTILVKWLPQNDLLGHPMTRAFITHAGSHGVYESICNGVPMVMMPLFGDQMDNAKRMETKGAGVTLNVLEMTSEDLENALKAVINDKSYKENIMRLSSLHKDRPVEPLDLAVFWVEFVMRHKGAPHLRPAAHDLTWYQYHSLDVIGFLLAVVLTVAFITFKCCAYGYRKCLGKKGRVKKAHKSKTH
# experiment description: Inhibition of raloxifene glucuronidation by recombinant UGT1A3 Supersomes
# test settings: human, Supersomes with recombinant human UGT1A3, pH 7.5, probe raloxifene 50 μM, formation of glucuronide G1, % of control metabolism, raloxifene G1, UGT1A3; inhibitor 10 μM
property: activity at 15 min, 10 µM (%)
Answer with a number only, understood to be in %.

CCCCCCCCOC(=O)c1cc(O)c(O)c(O)c1 [Octyl gallate]: 61

# activity at 15 min, 10 µM lookup, item O=c1c(O)c(-c2ccc(O)c(O)c2)oc2cc(O)cc(O)c12 [Quercetin]
81

O=C(OC[C@H]1O[C@@H](OC(=O)c2cc(O)c(O)c(OC(=O)c3cc(O)c(O)c(O)c3)c2)[C@H](OC(=O)c2cc(O)c(O)c(OC(=O)c3cc(O)c(O)c(O)c3)c2)[C@@H](OC(=O)c2cc(O)c(O)c(OC(=O)c3cc(O)c(O)c(O)c3)c2)[C@@H]1OC(=O)c1cc(O)c(O)c(OC(=O)c2cc(O)c(O)c(O)c2)c1)c1cc(O)c(O)c(OC(=O)c2cc(O)c(O)c(O)c2)c1 [Tannic acid] ?
48

CC/C(=C(/CC)c1ccc(O)cc1)c1ccc(O)cc1 [Diethylstilbestrol, reference compound] ?
65

* * *

# measurement target: UGT1A10 (Homo sapiens, UniProt Q9HAW8)
# Sequence (Q9HAW8 26-530): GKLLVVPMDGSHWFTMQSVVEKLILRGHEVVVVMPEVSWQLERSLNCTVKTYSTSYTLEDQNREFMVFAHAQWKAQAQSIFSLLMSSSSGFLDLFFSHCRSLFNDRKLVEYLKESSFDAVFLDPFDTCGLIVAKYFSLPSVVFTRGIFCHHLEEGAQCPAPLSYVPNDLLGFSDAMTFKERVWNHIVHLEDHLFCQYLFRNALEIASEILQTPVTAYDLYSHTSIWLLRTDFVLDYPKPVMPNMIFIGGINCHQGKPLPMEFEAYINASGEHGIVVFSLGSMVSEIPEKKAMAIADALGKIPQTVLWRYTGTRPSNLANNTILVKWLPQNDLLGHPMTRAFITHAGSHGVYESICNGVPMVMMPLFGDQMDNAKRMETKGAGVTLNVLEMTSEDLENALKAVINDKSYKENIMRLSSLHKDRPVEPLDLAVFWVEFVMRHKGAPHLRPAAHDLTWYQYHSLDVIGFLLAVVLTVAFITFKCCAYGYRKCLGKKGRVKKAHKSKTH
# experiment description: Inhibition of raloxifene glucuronidation by recombinant UGT1A10 Bacculosomes
# test settings: human, Bacculosomes with recombinant human UGT1A10, pH 7.5, probe raloxifene 50 μM, formation of glucuronide G2, % of control metabolism, raloxifene G2, UGT1A10; inhibitor 25 μM
Overview of reported activity at 15 min, 25 µM across a group of compounds:
Your answer should be a number followed by the unit of measure.

O=C(OC[C@H]1O[C@@H](OC(=O)c2cc(O)c(O)c(OC(=O)c3cc(O)c(O)c(O)c3)c2)[C@H](OC(=O)c2cc(O)c(O)c(OC(=O)c3cc(O)c(O)c(O)c3)c2)[C@@H](OC(=O)c2cc(O)c(O)c(OC(=O)c3cc(O)c(O)c(O)c3)c2)[C@@H]1OC(=O)c1cc(O)c(O)c(OC(=O)c2cc(O)c(O)c(O)c2)c1)c1cc(O)c(O)c(OC(=O)c2cc(O)c(O)c(O)c2)c1: 53%

Shift focus to the following entry.
# activity at 15 min, 25 µM lookup, item O=C(O[C@@H]1Cc2c(O)cc(O)cc2O[C@H]1c1cc(O)c(O)c(O)c1)c1cc(O)c(O)c(O)c1 [Gallocatechin gallate]
68%

* * *

# measurement target: UGT1A1 (Homo sapiens)
# Sequence (P22309 26-533): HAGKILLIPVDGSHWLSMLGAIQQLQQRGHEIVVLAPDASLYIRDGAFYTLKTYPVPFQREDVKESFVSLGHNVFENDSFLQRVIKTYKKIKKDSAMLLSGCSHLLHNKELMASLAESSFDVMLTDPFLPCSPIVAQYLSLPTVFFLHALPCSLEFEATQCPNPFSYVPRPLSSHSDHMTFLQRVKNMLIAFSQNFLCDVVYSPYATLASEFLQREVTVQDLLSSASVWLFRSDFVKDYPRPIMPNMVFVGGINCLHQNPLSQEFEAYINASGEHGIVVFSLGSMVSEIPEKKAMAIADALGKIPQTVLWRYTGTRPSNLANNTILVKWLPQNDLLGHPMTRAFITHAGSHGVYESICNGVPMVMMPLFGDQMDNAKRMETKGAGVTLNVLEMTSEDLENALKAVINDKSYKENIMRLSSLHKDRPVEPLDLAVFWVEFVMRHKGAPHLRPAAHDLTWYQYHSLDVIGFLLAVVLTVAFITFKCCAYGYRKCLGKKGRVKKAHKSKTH
# experiment description: Inhibition of raloxifene glucuronidation by recombinant UGT1A1 Supersomes
# test settings: human, recombinant UGT1A1 Supersomes, pH 7.5, probe raloxifene 50 μM (formation of glucuronide G1), Inhibition of raloxifene glucuronidation, G1, UGT1A1, G1; inhibitor 5 μM; raloxifene 50 μM, 250 μg/ml Supersomes, 1 mM UDPGA, 15 min
property: activity at 15 min, 5 µM (%)
Answer with a number only, understood to be in %.

# activity at 15 min, 5 µM lookup, item O=C(OC[C@H]1O[C@@H](OC(=O)c2cc(O)c(O)c(OC(=O)c3cc(O)c(O)c(O)c3)c2)[C@H](OC(=O)c2cc(O)c(O)c(OC(=O)c3cc(O)c(O)c(O)c3)c2)[C@@H](OC(=O)c2cc(O)c(O)c(OC(=O)c3cc(O)c(O)c(O)c3)c2)[C@@H]1OC(=O)c1cc(O)c(O)c(OC(=O)c2cc(O)c(O)c(O)c2)c1)c1cc(O)c(O)c(OC(=O)c2cc(O)c(O)c(O)c2)c1
39
